// provenance: paper PMC5075098

methodSummary: Plasma protein binding, rapid equilibrium dialysis
Type: in vitro ADME
measurementParameters: human, pH 7.4, read-out: protein bound (converted)
Starred links: 1 amine or outer side, 2 acyl side, 3 side chain; linkers in the order of their positions; H or OH if unused. Positions of bridges follow the written chain, without caps; N, C: chain ends. Non-standard residues stand in square brackets, D forms with d. Residues, ends and D or L forms follow the SMILES beside them. *: point of attachment. Orn(4R-OH,5R-OCH2CH2NMe3+) = C[N+](C)(C)CCO[C@@H](N[*:3])[C@H](O)C[C@H](N[*:1])C(=O)[*:2]; pTerphenylCO(4''-OnC5H11) = CCCCCOc1ccc(-c2ccc(-c3ccc(C(=O)*)cc3)cc2)cc1; hTyr(3S-OH,4S-OH) = N[C@H](C(=O)O)[C@H](O)[C@@H](O)c1ccc(O)cc1; Pro(3S-OH,4S-Me) = C[C@H]1CN[C@H](C(=O)O)[C@H]1O; Hyp = O=C(O)[C@@H]1C[C@@H](O)CN1
measurementName: fraction unbound

Give recorded fraction unbound. CCCCCOc1ccc(-c2ccc(-c3ccc(C(=O)N[C@H]4C[C@@H](O)[C@@H](OCC[N+](C)(C)C)NC(=O)[C@@H]5[C@@H](O)[C@@H](C)CN5C(=O)[C@H]([C@@H](C)O)NC(=O)[C@H]([C@H](O)[C@@H](O)c5ccc(O)cc5)NC(=O)[C@@H]5C[C@@H](O)CN5C(=O)[C@H]([C@@H](C)O)NC4=O)cc3)cc2)cc1 [CD101] ({pTerphenylCO(4''-OnC5H11)}-[Orn(4R-OH,5R-OCH2CH2NMe3+)]T[Hyp][hTyr(3S-OH,4S-OH)]T[Pro(3S-OH,4S-Me)]; lactam 1-C)
0.013
